- target: IL15
- condition: ASO; also: test concentration or dose not given here
These antisense oligonucleotides have a phosphorothioate backbone; sugars and methylation of C are not fully specified.
# remaining target (mRNA or protein) (fraction of control) annotations

[ask] Look at this sequence and give its reported remaining target (mRNA or protein) (fraction of control). AGCTGGCTATGGCAAGGG
[reply] 0.35

[ask] Quick one: remaining target (mRNA or protein) (fraction of control) for TTCTCATTACTCAAAGCC ?
[reply] 0.87

[ask] Which value of remaining target (mRNA or protein) (fraction of control) has been reported for ACTCTAGGCCCATAGCAA in the records?
[reply] 0.58

[ask] Bench note: what remaining target (mRNA or protein) (fraction of control) did ATTAGAAGACAAACTGTT show?
[reply] ≥ 1

[ask] May I ask what remaining target (mRNA or protein) (fraction of control) has been recorded for TTCAATAATAAATTAAAA ?
[reply] ≥ 1

[ask] Which remaining target (mRNA or protein) (fraction of control) is reported for this sequence? GTTAGGTGCTTTGGGCCA
[reply] 0.13

[ask] Consider the sequence AGTGAAATAACTTGTAAC and give its measured remaining target (mRNA or protein) (fraction of control).
[reply] ≥ 1

[ask] Name the recorded remaining target (mRNA or protein) (fraction of control) for CTAGGGTAAAGTATGATC .
[reply] ≥ 1

[ask] What value of remaining target (mRNA or protein) (fraction of control) has been reported for the following sequence? GTACATGACAGCCAGGAT
[reply] 0.35

[ask] # input sequence: CTGAACTGAGAGTCAGAT ; wanted: its remaining target (mRNA or protein) (fraction of control)
[reply] 0.27

[ask] What remaining target (mRNA or protein) (fraction of control) value was documented for this sequence, ATATTACTCAATGACATT ?
[reply] ≥ 1

[ask] Item TTTAATCTTTACAATAAT has what recorded remaining target (mRNA or protein) (fraction of control)?
[reply] ≥ 1

[ask] # query: remaining target (mRNA or protein) (fraction of control) of entry CCAGCTTCAGTTAGAAAA
[reply] ≥ 1

[ask] Requested field: remaining target (mRNA or protein) (fraction of control). Item: ATGCATCACCTTTAATCT
[reply] 0.65

====

- target: REL
- condition: ASO
These antisense oligonucleotides have a phosphorothioate backbone; sugars and methylation of C are not fully specified.
Readings of remaining target (mRNA or protein) (fraction of control) for the listed sequences
In your answer, state the number alone without any accompanying words.

ATGCCTTTTGCTTCCCAA: 0.14

[ask] Name the recorded remaining target (mRNA or protein) (fraction of control) for TCCCAAAGTGCTAGGATT .
[reply] 0.7

[ask] Suppose we examine the sequence TCTTTCTGAACTTTGTCA ; what remaining target (mRNA or protein) (fraction of control) value has been reported?
[reply] 0.98

====

- target: SMAD3
- condition: ASO
These antisense oligonucleotides have a phosphorothioate backbone; sugars and methylation of C are not fully specified.
Mark True only when remaining target (mRNA or protein) (fraction of control) stays strictly below 0.6. Values equal to the cut-off are False.

TGGGTTGAGTAGAGTTCC: True
GGTAGGGATTCACGCAGA: False
GCCCTGGTTGACCGACTG: False

Switching to the query record.
[ask] hey, is remaining target (mRNA or protein) (fraction of control) for CGATGTAGTAGAGCCGCA lower than 0.6 or not?
[reply] True
